Target: G protein-activated inward rectifier potassium channel 2 (Homo sapiens) + G protein-activated inward rectifier potassium channel 1 (Homo sapiens) (UniProt P48051+P48549)
Sequence (P48051 whole entry, looked up): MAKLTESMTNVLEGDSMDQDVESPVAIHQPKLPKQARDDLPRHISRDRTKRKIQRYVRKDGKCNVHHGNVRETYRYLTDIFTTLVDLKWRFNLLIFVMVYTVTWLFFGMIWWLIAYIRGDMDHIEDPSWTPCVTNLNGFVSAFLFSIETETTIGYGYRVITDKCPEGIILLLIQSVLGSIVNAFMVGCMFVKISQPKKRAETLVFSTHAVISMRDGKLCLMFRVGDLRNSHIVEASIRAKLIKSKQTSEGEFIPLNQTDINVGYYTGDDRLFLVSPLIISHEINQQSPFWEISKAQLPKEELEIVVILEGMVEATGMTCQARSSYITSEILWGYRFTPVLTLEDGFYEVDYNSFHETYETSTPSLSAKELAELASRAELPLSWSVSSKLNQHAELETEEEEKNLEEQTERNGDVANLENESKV
Sequence (P48549 whole entry, looked up): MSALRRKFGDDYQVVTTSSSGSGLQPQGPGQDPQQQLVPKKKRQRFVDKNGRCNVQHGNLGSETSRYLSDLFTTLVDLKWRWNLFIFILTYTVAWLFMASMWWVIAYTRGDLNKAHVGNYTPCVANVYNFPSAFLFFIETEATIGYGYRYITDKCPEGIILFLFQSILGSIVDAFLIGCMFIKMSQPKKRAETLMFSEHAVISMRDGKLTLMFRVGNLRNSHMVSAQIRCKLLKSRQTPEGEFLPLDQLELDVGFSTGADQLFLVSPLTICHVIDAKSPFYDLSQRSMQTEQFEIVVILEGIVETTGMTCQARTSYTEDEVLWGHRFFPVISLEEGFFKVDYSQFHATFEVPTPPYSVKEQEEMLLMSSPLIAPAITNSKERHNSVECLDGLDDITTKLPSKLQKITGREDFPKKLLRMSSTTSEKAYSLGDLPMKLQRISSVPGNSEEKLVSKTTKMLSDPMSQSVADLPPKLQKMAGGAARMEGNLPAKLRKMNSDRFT
Experiment: GIRK1/2 thallium flux modulators, retest, confirmation, cell-based, HEK293 rmGlu8/hGIRK1/2, FluoZin-2 (AID 623911)
Settings: HEK293 rmGlu8/hGIRK1/2, thallium flux FluoZin-2; actives lie on both sides; glutamate co-added at its EC20 level
Screen size: about 2,100 compounds; about 770 (37%) were called active.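 Rule for the calls: active = by-eye trace score of 1 for enhancers or -1 for inhibitors, so actives lie on both sides (some results past the limit were not filed as active); inactive = score 0, or 3 fluorescent, or 4 baseline rise.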 The list shows a part of the results.
Just give me one of these, please: true (active), false (inactive)

Query: recorded result category for `O=C(Nc1nnc(-c2ccc(Cl)cc2)o1)c1nc2ccccc2s1` in this test
true

Any idea what this test logged for `Cc1ccccc1Cn1cc(NC(=O)c2nc3ncccn3n2)cn1` ?
false

Call for entry `FC(F)(F)c1cccc(NC(=S)NC2CCCC2)c1` :
true

Call for entry `FC(F)(F)c1cccc(N2CCN(C(=S)NC3CCCCC3)CC2)c1` :
false

Look up the recorded call for CC1Cc2ccccc2N1C(=S)NC(=O)c1ccc(Cl)cc1Cl (configuration not stated) in this test.
true

Recorded call for `COC(=O)c1ccccc1NC(=S)NC(=O)c1ccccc1` ?
true

Given `O=C(c1cc(-c2ccccc2)on1)N1CCCC1` , state the outcome it received in this test.
false

Please share the test call associated with `CCCN(CCC)C(=S)NC(=O)c1ccc(Cl)cc1Cl` .
true

GET /call?item= `O=C(Nc1nnc(-c2ccc(Cl)cc2)o1)c1ccccc1Br` returns the recorded outcome of this test.
true

Which result was noted for this molecule in the test: `CCCCN(CCCC)C(=S)NC(=O)C(C)(C)C`
true

What classification did `FC(F)(F)c1cccc(NC(=S)NCc2ccccc2)c1` end up with in this test?
true

Per the assay record, what outcome was assigned to `CCOC(=O)c1ccc(CNCc2ccc(Br)cc2)cc1` ?
false

----------
Biological target: G protein-activated inward rectifier potassium channel 2 (Homo sapiens) + G protein-activated inward rectifier potassium channel 1 (Homo sapiens) (UniProt P48051+P48549)
Test: GIRK1/2 thallium flux modulators, retest, confirmation, cell-based, HEK293 rmGlu8/hGIRK1/2, FluoZin-2 (AID 623911)
Conditions: HEK293 rmGlu8/hGIRK1/2, thallium flux FluoZin-2; actives lie on both sides; glutamate co-added at its EC20 level
Screen size: about 2,100 compounds; about 770 (37%) were called active. The list shows a part of the results.
Assign manual score to each entry below.
Please state the value as a number alone, without comment.

manual score for `S=C(NCc1ccc(Cl)cc1Cl)Nc1ccccc1` is 1

Measured manual score, Cc1ccc(C)c(NC(=S)NNC(=O)c2cc3c(s2)CCC(C)C3)c1 (configuration not stated) : 1

Lab book: manual score of `Fc1ccc(NC(=S)NCc2ccccc2Cl)cc1` noted as 1

Query `CCCCc1ccc(NC(=S)Nc2cccnc2)cc1` yields manual score of 1

compound `CCCCN(CCCC)S(=O)(=O)c1ccc(NC(=O)c2ccc([N+](=O)[O-])cc2Cl)cc1` , manual score observed: 0

So, `CCCCc1ccc(NC(=S)Nc2ccc(Cl)c(S(=O)(=O)N(C)C)c2)cc1` ? Its manual score was 1

Lab note: `CCSc1ccccc1C(=O)Nc1cccnc1` gave manual score of 0

Kindly note the recorded manual score for `O=C(CCCc1nc(-c2ccc(Cl)cc2)no1)Nc1cccnc1` , which is 0

manual score for `COc1ccc(S(=O)(=O)N(CC(=O)N2CCN(c3ccccc3)CC2)c2ccccc2)cc1` is 0

Lookup result for Cc1ccccc1NC(=S)NNC(=O)c1csc2c1CCC(C)C2 (configuration not stated) ; measured manual score: 1

Per the record, `Clc1ccc(Cc2ccc(SCc3ccccc3)nn2)c(Cl)c1` has manual score of 0

What the record says about `CC(C)COc1ccc(Cc2cnc(N)nc2N)cc1` : manual score is 0

----------
Biological target: G protein-activated inward rectifier potassium channel 2 (Homo sapiens) + G protein-activated inward rectifier potassium channel 1 (Homo sapiens) (UniProt P48051+P48549)
Experiment: GIRK1/2 thallium flux modulators, retest, confirmation, cell-based, HEK293 rmGlu8/hGIRK1/2, FluoZin-2 (AID 623911)
Details: HEK293 rmGlu8/hGIRK1/2, thallium flux FluoZin-2; actives lie on both sides; glutamate co-added at its EC20 level
About 770 (37%) of roughly 2,100 compounds were called active.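 Rule for the calls: active = by-eye trace score of 1 for enhancers or -1 for inhibitors, so actives lie on both sides (some results past the limit were not filed as active); inactive = score 0, or 3 fluorescent, or 4 baseline rise.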 The list shows a part of the results.
# output must be one of true (active), false (inactive)

Just curious, what result did `CC1(C)Cc2ccccc2-c2nnc(SCC(=O)Nc3nc4ccccc4s3)n21` get here?
false

For Cc1ccc(C2c3c(oc4ccc(Cl)cc4c3=O)C(=O)N2CCCN2CCOCC2)o1 (stereo not given) , which call appears in the assay record?
false

# lookup: test call for COc1ccc(CNCCC(c2ccc(F)cc2)c2ccc(OC)cc2)cc1 (stereo not given)
true

Hi, do you know how `CC(C)Cn1c2c(c(O)c(C(=O)Nc3ncccc3O)c1=O)CCCC2` came out in this test?
false

Field: outcome | Entry: `FC(F)(F)c1cnc(NNC(=S)Nc2ccc(Cl)cc2)c(Cl)c1`
true

----------
Target: G protein-activated inward rectifier potassium channel 2 (Homo sapiens) + G protein-activated inward rectifier potassium channel 1 (Homo sapiens) (UniProt P48051+P48549)
Experiment: GIRK1/2 thallium flux modulators, retest, confirmation, cell-based, HEK293 rmGlu8/hGIRK1/2, FluoZin-2 (AID 623911)
Details: HEK293 rmGlu8/hGIRK1/2, thallium flux FluoZin-2; actives lie on both sides; glutamate co-added at its EC20 level
Among all 2,100 compounds or so, about 770 (37%) were called active. The list shows a part of the results.
reported-property: manual score
Reply briefly: the number, and no unit.

The recorded manual score for entry `NC(=O)CSc1ncnc2c1cnn2Cc1ccccc1` equals 0

Consider `COc1ccc(OC)c(Nc2ncnc3c2cnn3-c2cccc(C)c2)c1` . Its measured manual score is 0

Reported manual score of `CCC/C(=N/NC(=O)c1csc(C)c1C)c1ccc(Cl)s1` : 0

Entry `CCN(CC)C(=O)CSc1ncnc2sc(-c3ccccc3)cc12` — recorded manual score = 0

Record `COc1ccc2nc(/N=C/c3c(C)[nH]n(-c4ccc(C)cc4)c3=O)sc2c1` . Reported manual score: 1

The compound listed as `COc1cccc2c1OC[C@@H](CO)[C@H]2N(C)C(=O)Nc1ccccc1` has a reported manual score of 0

Briefly, manual score measured for `CC(C)N(C(=O)CSc1ncnc2sc(-c3ccccc3)cc12)C(C)C` : 0

Lab book: manual score of `CN(C)CCNc1ncnc2c1cnn2-c1ccc(Cl)cc1` noted as 0

# compound `COc1ccc(CN(CCC#N)C(=S)NC(=O)c2ccccc2)cc1` ; its manual score = 1

Recorded result, O=C(Nc1ncc(Br)s1)C(Cc1ccccc1)n1cccc1 (centres undefined) , manual score: 1

Measured manual score, `Cc1ccc2nc(NCc3ccccc3)[nH]c2c1` : -1

Notebook: CCSc1nnc(NC(=O)C(Cc2ccccc2)n2cccc2)s1 (centres undefined) , manual score read as 0

So for `Cc1ccc(S(=O)(=O)c2c(C)cc(C)nc2Cl)c(C)c1` , the logged manual score turned out to be 0

Sample `N#CCCN(Cc1ccccc1)C(=S)NC(=O)c1ccccc1` ; manual score observed: 1

Form field manual score, entry `CCOC(=O)c1ccc(NC(=O)Nc2ccc(OC)c(OC)c2)cc1` : 0.5

manual score reported for this compound `CN1CCN(C(=O)c2sc(=S)n(-c3ccccc3)c2N)CC1` : 0

Record `CCCOC(=O)c1ccc(NC(=O)c2ccoc2C)cc1` , field manual score: 0.5

Lookup result for `COc1cccc(C(=O)NC(=S)Nc2ccc3c4c(cccc24)CC3)c1` ; measured manual score: 0

Reported manual score ( `CCOC(=O)C1CCN(C(=O)N(C)C)CC1` ) = 0

Noted for `COc1cccc(NC(=O)NC2(C(F)(F)F)Oc3ccccc3O2)c1` : its manual score reads 0

The reported value for `CCOC(=O)c1ccc(NC(=O)N2CCN(Cc3cccc(F)c3)CC2)cc1` in terms of manual score is -1

The compound `CC(=O)c1c(C)[nH]c(C(=O)CSc2ncnc3sc(-c4ccccc4)cc23)c1C` showed manual score equal to 1

For record `Cc1ccc(-n2ncc3c(SCc4ccccc4)ncnc32)cc1` the listed manual score is 1

compound CCOC(=O)C(C)Sc1nc2c(cnn2-c2ccc(C)cc2)c(=O)[nH]1 (centres undefined) , manual score observed: 0

----------
Target: G protein-activated inward rectifier potassium channel 2 (Homo sapiens) + G protein-activated inward rectifier potassium channel 1 (Homo sapiens) (UniProt P48051+P48549)
Experiment: GIRK1/2 thallium flux modulators, retest, confirmation, cell-based, HEK293 rmGlu8/hGIRK1/2, FluoZin-2 (AID 623911)
Conditions: HEK293 rmGlu8/hGIRK1/2, thallium flux FluoZin-2; actives lie on both sides; glutamate co-added at its EC20 level
Hit rate of the full screen: of about 2,100 compounds, about 770 (37%) were called active.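 The calls were made as follows: active = by-eye trace score of 1 for enhancers or -1 for inhibitors, so actives lie on both sides (some results past the limit were not filed as active); inactive = score 0, or 3 fluorescent, or 4 baseline rise.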 The list shows a part of the results.
Would you mind answering with one of these outcomes? t for active, f for inactive

Query: recorded result category for `COc1ccc(OCCCN2CCCCCC2)cc1` in this test
f

Which outcome was assigned to `Cc1cc(CC(C)C)n(-c2nc3ccccc3c(=O)n2OCC(N)=O)n1` in this test?
f

Record request — test call for `CCOC(=O)c1sc(NC(=S)NC(=O)c2ccco2)nc1C`
t

Called result for `CC(C)(C)c1ccc(C(=O)NC(=S)Nc2nc3c(s2)CCCC3)cc1`
f

I would be grateful if you could indicate the recorded call for `CCN1CCN(CCCOc2ccc(-c3ccccc3)cc2)CC1` .
t

// outcome(item) with item = `CCc1nnc(NS(=O)(=O)c2ccc(NC(=S)NC(=O)c3ccccc3)cc2)s1`
f

What call does the record list for `COC(=O)c1sc(NC(=S)NC(=O)c2cccc(C)c2)nc1C` ?
f

Hi, do you know how `COC(=O)c1sc(NC(=S)NC(=O)c2ccccc2)nc1C` came out in this test?
t

Call for entry `O=C(NC(=S)Nc1nc2ccccc2s1)c1ccco1` :
t

Outcome? `O=C(NC(=S)NCc1ccc(-c2nc3ccccc3s2)cc1)c1ccco1`
f

For `CN(C)CCCOc1ccc(C(C)(C)c2ccccc2)cc1` , which call appears in the assay record?
f
